Cited source for all entries: ChEMBL document CHEMBL4265871

Tested on: Candida albicans
Experiment: Antifungal activity against ITC and FLC-susceptible Candida albicans ATCC MYA-2876 incubated for 48 hrs by modified CLSI M27-A3 protocol based method
Type: functional
Settings: ATCC MYA-2876, 48 h
reported-property: log10 of MIC50 (log10 of the value in µM)

molecule	log10 of MIC50
CCCCCC(O)(Cn1cncn1)c1ccc(Cl)cc1 (stereo not given)	1.73
CCCCCCCCC(O)(Cn1cncn1)c1ccc(F)cc1F (stereo not given)	0.76
CCCCC(O)(Cn1cncn1)c1ccc(Cl)cc1Cl (stereo not given)	0.79
CC[C@@H]([C@H](C)O)n1ncn(-c2ccc(N3CCN(c4ccc(OC[C@@H]5CO[C@@](Cn6cncn6)(c6ccc(F)cc6F)C5)cc4)CC3)cc2)c1=O	1.05
CCCCCC(O)(Cn1cncn1)c1ccccc1Cl (stereo not given)	0.52
CCCCCCC(O)(Cn1cncn1)c1ccccc1Cl (stereo not given)	0.51
OC(Cn1cncn1)(Cn1cncn1)c1ccc(F)cc1F	1.71
CCCCCCCCCCCCC(O)(Cn1cncn1)c1ccc(F)cc1F (stereo not given)	1.30
CCCCC(O)(Cn1cncn1)c1ccc(F)cc1F (stereo not given)	1.44
CCC(O)(Cn1cncn1)c1ccc(F)cc1F (stereo not given)	1.79
CCCCCCC(O)(Cn1cncn1)c1ccc(F)cc1 (stereo not given)	1.43
CCC(O)(Cn1cncn1)c1ccc(Cl)cc1Cl (stereo not given)	0.53
